Recorded MIC by entry
tested on: Streptococcus pyogenes; test: Antimicrobial activity against erythromycin-susceptible Streptococcus pyogenes after 16 to 22 hrs by broth microdilution method; type: functional; settings: Streptococcus pyogenes; read-out: MIC
The reply should be a number in µg/mL, with the unit left off.

| compound | MIC (µg/mL) |
| --- | --- |
| CC[C@H]1OC(=O)[C@H](C)[C@@H](O)[C@H](C)[C@@H](O[C@@H]2O[C@H](C)C[C@H](N(C)C)[C@H]2O)[C@](C)(O)C[C@@H](C)CN(CCCNC(=S)NCCc2ccccc2)[C@H](C)[C@@H](O)[C@]1(C)O | 32 |

# input compound: CC[C@H]1OC(=O)[C@H](C)[C@@H](O)[C@H](C)[C@@H](O[C@@H]2O[C@H](C)C[C@H](N(C)C)[C@H]2O)[C@](C)(O)C[C@@H](C)CN(CCCNC(=S)Nc2cccc3ccccc23)[C@H](C)[C@@H](O)[C@]1(C)O ; wanted: its MIC
8

Try this compound too: CC[C@H]1OC(=O)[C@H](C)[C@@H](O)[C@H](C)[C@@H](O[C@@H]2O[C@H](C)C[C@H](N(C)C)[C@H]2O)[C@](C)(O)C[C@@H](C)CN(CCCNC(=O)Nc2cccc3ccccc23)[C@H](C)[C@@H](O)[C@]1(C)O
2

Subsequent entry: CC[C@H]1OC(=O)[C@H](C)[C@@H](O)[C@H](C)[C@@H](O[C@@H]2O[C@H](C)C[C@H](N(C)C)[C@H]2O)[C@](C)(O)C[C@@H](C)CN(CCCN(CCC#N)C(=O)NC(C)c2cccc3ccccc23)[C@H](C)[C@@H](O)[C@]1(C)O (mixture of isomers)
4

Item: CC[C@H]1OC(=O)[C@H](C)[C@@H](O)[C@H](C)[C@@H](O[C@@H]2O[C@H](C)C[C@H](N(C)C)[C@H]2O)[C@](C)(O)C[C@@H](C)CN(CCCN(CCC#N)C(=O)Nc2cccc3ccccc23)[C@H](C)[C@@H](O)[C@]1(C)O
16

Likewise for CC[C@H]1OC(=O)[C@H](C)[C@@H](O)[C@H](C)[C@@H](O[C@@H]2O[C@H](C)C[C@H](N(C)C)[C@H]2O)[C@](C)(O)C[C@@H](C)CN(CCCN(CCC#N)C(=S)NCCCc2ccccc2)[C@H](C)[C@@H](O)[C@]1(C)O ?
32

Param item: CC[C@H]1OC(=O)[C@H](C)[C@@H](O)[C@H](C)[C@@H](O[C@@H]2O[C@H](C)C[C@H](N(C)C)[C@H]2O)[C@](C)(O)C[C@@H](C)CN(CCCN(CCC#N)C(=O)Nc2ccc3ccccc3c2)[C@H](C)[C@@H](O)[C@]1(C)O
8

====

tested on: Enterococcus faecalis; experiment: Antimicrobial activity against Enterococcus faecalis ATCC 29212 after 16 to 22 hrs by broth microdilution method; type: functional
endpoint-name: MIC (µg/mL)
Enter your answer as a number in µg/mL; do not include the unit.

Value lookup for MIC; key = CC[C@H]1OC(=O)[C@H](C)[C@@H](O)[C@H](C)[C@@H](O[C@@H]2O[C@H](C)C[C@H](N(C)C)[C@H]2O)[C@](C)(O)C[C@@H](C)CN(CCCNC(=O)NC(C)c2cccc3ccccc23)[C@H](C)[C@@H](O)[C@]1(C)O (mixture of isomers)
8

Would you kindly repeat that for CC[C@H]1OC(=O)[C@H](C)[C@@H](O)[C@H](C)[C@@H](O[C@@H]2O[C@H](C)C[C@H](N(C)C)[C@H]2O)[C@](C)(O)C[C@@H](C)CN(CCCNC(=S)Nc2cccc3ccccc23)[C@H](C)[C@@H](O)[C@]1(C)O ?
32

====

system: Enterococcus faecalis; assay: Antimicrobial activity against Enterococcus faecalis ATCC 29212 after 16 to 22 hrs by broth microdilution method; type: functional
endpoint-name: MIC

Solved cases (2 shown):
| smi | MIC |
| --- | --- |
| CC[C@H]1OC(=O)[C@H](C)[C@@H](O)[C@H](C)[C@@H](O[C@@H]2O[C@H](C)C[C@H](N(C)C)[C@H]2O)[C@](C)(O)C[C@@H](C)CN(CCCN(CCC#N)C(=S)NCCCc2ccccc2)[C@H](C)[C@@H](O)[C@]1(C)O | > 64 mg/L |
| CC[C@H]1OC(=O)[C@H](C)[C@@H](O)[C@H](C)[C@@H](O[C@@H]2O[C@H](C)C[C@H](N(C)C)[C@H]2O)[C@](C)(O)C[C@@H](C)CN(CCCN(CCC#N)C(=S)NCc2ccccc2)[C@H](C)[C@@H](O)[C@]1(C)O | > 64 mg/L |

Now for the molecule whose MIC we want.
Given CC[C@H]1OC(=O)[C@H](C)[C@@H](O)[C@H](C)[C@@H](O[C@@H]2O[C@H](C)C[C@H](N(C)C)[C@H]2O)[C@](C)(O)C[C@@H](C)CN(CCCN(CCC#N)C(=O)Nc2cccc3ccccc23)[C@H](C)[C@@H](O)[C@]1(C)O , state its recorded MIC.
> 64 mg/L

====

system: Streptococcus pyogenes; experiment: Antimicrobial activity against erythromycin-susceptible Streptococcus pyogenes after 16 to 22 hrs by broth microdilution method; type: functional; conditions: Streptococcus pyogenes; read-out: MIC
endpoint-name: MIC

| compound | tested-system | MIC |
| --- | --- | --- |
| CC[C@H]1OC(=O)[C@H](C)[C@@H](O)[C@H](C)[C@@H](O[C@@H]2O[C@H](C)C[C@H](N(C)C)[C@H]2O)[C@](C)(O)C[C@@H](C)CN(CCCN(CCC#N)C(=S)NCc2ccccc2)[C@H](C)[C@@H](O)[C@]1(C)O | Streptococcus pyogenes | > 64 µg/mL |
| CC[C@H]1OC(=O)[C@H](C)[C@@H](O)[C@H](C)[C@@H](O[C@@H]2O[C@H](C)C[C@H](N(C)C)[C@H]2O)[C@](C)(O)C[C@@H](C)CN(CCCNC(=O)NC(C)c2cccc3ccccc23)[C@H](C)[C@@H](O)[C@]1(C)O (mixture of isomers) | Streptococcus pyogenes | < 0.125 µg/mL |
| CC[C@H]1OC(=O)[C@H](C)[C@@H](O)[C@H](C)[C@@H](O[C@@H]2O[C@H](C)C[C@H](N(C)C)[C@H]2O)[C@](C)(O)C[C@@H](C)CN(CCCN(CCC#N)C(=O)Nc2ccc(Cl)cc2Cl)[C@H](C)[C@@H](O)[C@]1(C)O | Streptococcus pyogenes | > 64 µg/mL |

API: the following record is the query input.
Any idea what MIC was measured for CC[C@H]1OC(=O)[C@H](C)[C@@H](O)[C@H](C)[C@@H](O[C@@H]2O[C@H](C)C[C@H](N(C)C)[C@H]2O)[C@](C)(O)C[C@@H](C)CN(CCCN(CCC#N)C(=S)NCCc2ccccc2)[C@H](C)[C@@H](O)[C@]1(C)O ?
> 64 µg/mL
